System: U2OS
assay-explanation: cell viability relative to DMSO; higher = less toxic
condition-description: 72 h; 10 nM
Hi there, I'd appreciate the recorded cell viability for every entry that follows.
Numbers only, in %.

Some solved entries appear below for comparison.
{"columns": ["compound", "tested-target", "cell viability [%]"],
 "data": [
  ["CC#CCn1c(N2CCC[C@@H](N)C2)nc2c1c(=O)n(Cc1nc(C)c3ccccc3n1)c(=O)n2C [linagliptin]", "U2OS", 99.8],
  ["C[C@@H]1C[C@H]2[C@@H]3C[C@H](F)C4=CC(=O)C=C[C@]4(C)[C@@]3(F)[C@@H](O)C[C@]2(C)[C@@]1(O)C(=O)CO [flumethasone]", "U2OS", 93.5],
  ["CC(=O)OC[C@H](N)C(=O)O [O-acetyl-L-serine]", "U2OS", 104]
]}

Batch: cell viability for all items listed.
1. CC(/C=C1\SC(=S)N(CC(=O)O)C1=O)=C\c1ccccc1 [epalrestat]
2. Cc1ccc(NC2=CC(=O)c3sc(C)nc3C2=O)cc1 [ryuvidine]
3. CC(=O)c1c(C)c2cnc(Nc3ccc(N4CCNCC4)cn3)nc2n(C2CCCC2)c1=O [palbociclib]
4. c1ccc([C@@H]2C[C@H]2NC2CCNCC2)cc1 [GSK-LSD-1]

a:
[98.1, 97.3, 94.8, 98.1]

Batch: cell viability for all items listed.
1. Cn1nc(-c2ccc(C(F)(F)F)cc2)nc2c(=O)n(C)c(=O)nc1-2 [walrycin-B]
2. CCCOc1ccc2[nH]cc(C3=CCNCC3)c2n1
3. Cc1ccc(/C=N/NC(=O)c2ccccc2Oc2ccccc2)o1

a:
1: 107; 2: 97.9; 3: 97.3

---

Hi there, I'd appreciate the recorded cell viability for every entry that follows.
Tested on: Vero E6
assay-explanation: cell viability relative to DMSO; higher = less toxic
condition-description: 72 h; 100 nM
Give bare numbers, in %.

{"columns": ["molecule", "tested-target", "display-unit", "cell viability"],
 "data": [
  ["CC(=O)Nc1ccccc1 [acetanilide]", "Vero E6", "%", 102],
  ["COc1cc([C@@H]2c3cc4c(cc3[C@@H](O[C@@H]3O[C@@H]5CO[C@@H](C)O[C@H]5[C@H](O)[C@H]3O)[C@H]3COC(=O)[C@H]23)OCO4)cc(OC)c1O [etoposide]", "Vero E6", "%", 103],
  ["Cc1cc(Oc2ccc3nc(COc4ccc(CC5SC(=O)NC5=O)cc4)n(C)c3c2)cc(C)c1N (stereo not given)", "Vero E6", "%", 87.5],
  ["COC(=O)[C@@H](N)CCCNC(=N)N[N+](=O)[O-]", "Vero E6", "%", 99.9],
  ["CCCCCCCCCCCCCCCC=O", "Vero E6", "%", 106]
]}

Batch: cell viability for all items listed.
1. COc1cc(NS(=O)(=O)c2ccc(N)cc2)ncn1
2. CCn1ccnc1CC1COc2ccccc2O1 (stereo not given)

a:
106
95.9

---

Tested on: Caco-2
assay-explanation: cell viability relative to DMSO; higher = less toxic
condition-description: 72 h; 100 nM
Hi there, I'd appreciate the recorded cell viability for every entry that follows.
One number for each entry, in %.

{"columns": ["compound", "cell viability / %"],
 "data": [
  ["CC(C)C(N)=O [isobutyramide]", 97.9],
  ["CC(C)CNc1ccnc(NCc2csc(-c3ccccc3)n2)n1", 98.1]
]}

Batch: cell viability for all items listed.
1. COc1cc([C@@H]2c3cc4c(cc3[C@@H](O[C@@H]3O[C@@H]5CO[C@@H](C)O[C@H]5[C@H](O)[C@H]3O)[C@H]3COC(=O)[C@H]23)OCO4)cc(OC)c1O [etoposide]
2. CCCCCCCCCC(=O)OCCN1CCN(CCCN2c3ccccc3Sc3ccc(C(F)(F)F)cc32)CC1 [fluphenazine-decanoate]
3. CN1CCN(CC/C=C2/c3ccccc3Sc3ccc(S(=O)(=O)N(C)C)cc32)CC1
4. CC(=O)OCC1=C(C(=O)O)N2C(=O)[C@@H](NC(=O)Cc3cccs3)[C@H]2SC1
5. C[C@@H]1COC(Nc2ccc3ncnc(Nc4ccc(OCc5nccs5)c(Cl)c4)c3c2)=N1
6. N[C@H]1CC[C@H](N[C@@H]2C[C@H]2c2ccccc2)CC1
7. CC(=O)Oc1ccccc1C(=O)Oc1ccccc1C(=O)O
8. Oc1cc(O)cc(/C=C/c2ccc(O)c(O)c2)c1

a:
1. 92.2
2. 96.3
3. 103
4. 102
5. 97.2
6. 93.2
7. 101
8. 101

Batch: cell viability for all items listed.
1. COc1ccc(S(=O)(=O)Nc2c(C)cc(C)cc2C)cc1
2. [N-]=[N+]=CC(=O)CC[C@H](N)C(=O)O
3. O=C1NCN(c2ccccc2)C12CCN(CCCC(c1ccc(F)cc1)c1ccc(F)cc1)CC2

a:
[93.6, 97.8, 80.5]

q: State its cell viability for this compound: "COc1ccc(NS(=O)(=O)c2ccc(I)cc2)cc1N1CCN(C)CC1"
a: 102

---

Hi there, I'd appreciate the recorded cell viability for every entry that follows.
Test system: Caco-2
assay-explanation: cell viability relative to DMSO; higher = less toxic
condition-description: 72 h; 1 nM
Kindly write the number and append the unit.

{"columns": ["cpd-smiles", "cell viability"],
 "data": [
  ["CCCCCCCCCCCCCCCC=O", "104%"],
  ["NCCNS(=O)(=O)c1ccc(Cl)c2ccncc12", "105%"]
]}

Let us examine a further case.
q: State its cell viability for this molecule: "C[C@H](NC(=O)/C(C#N)=C/c1ccc(O)c(O)c1)c1ccccc1"
a: 92.2%

---

Test system: Caco-2
assay-explanation: cell viability relative to DMSO; higher = less toxic
condition-description: 72 h; 10000 nM
endpoint-label: cell viability (%)
Give bare numbers, in %.

Some solved entries appear below for comparison.
{"columns": ["compound", "tested-target", "endpoint-label", "value-reported"],
 "data": [
  ["Cc1ccc(/C=N/NC(=O)c2ccccc2Oc2ccccc2)o1", "Caco-2", "cell viability", 88.7],
  ["c1coc(-c2nnc3sc(C4CCCCC4)nn23)c1", "Caco-2", "cell viability", 89.7]
]}

Let us examine a further case.
q: State its cell viability for this compound: O=C(O)/C=C(/CC(=O)O)C(=O)O [cis-aconitic-acid]
a: 93.4

---

Test system: Caco-2
assay-explanation: cell viability relative to DMSO; higher = less toxic
condition-description: 72 h; 100 nM
endpoint-label: cell viability (%)
Answers are plain numbers, in %.

{"columns": ["compound", "tested-target", "cell viability, %"],
 "data": [
  ["CC(C)[C@@]1(NC(=O)[C@@H]2C[C@@H]3c4cccc5[nH]cc(c45)C[C@H]3N(C)C2)O[C@@]2(O)[C@@H]3CCCN3C(=O)[C@H](Cc3ccccc3)N2C1=O [dihydroergocristine]", "Caco-2", 89.3],
  ["Cn1nc(-c2ccc(C(F)(F)F)cc2)nc2c(=O)n(C)c(=O)nc1-2", "Caco-2", 99.3],
  ["CC(=O)O[C@H]1Cc2ccccc2N(C(N)=O)c2ccccc21 [eslicarbazepine-acetate]", "Caco-2", 91.3]
]}

Let us examine a further case.
q: State its cell viability for this compound: "COc1cc(CNC(=O)CCCC/C=C/C(C)C)ccc1O"
a: 103

---

System: Calu-3
assay-explanation: cell viability relative to DMSO; higher = less toxic
condition-description: 72 h; 10000 nM
endpoint-label: cell viability (%)
One number for each entry, in %.

Some solved entries appear below for comparison.
{"columns": ["compound", "cell viability, %"],
 "data": [
  ["FC(F)(F)c1ccc(CNc2ccc(Cc3c[nH]c4ncc(Cl)cc34)cn2)cn1 [pexidartinib]", 90],
  ["Oc1cc(O)cc(/C=C/c2ccc(O)c(O)c2)c1 [piceatannol]", 88.9],
  ["CCCC(=O)O [sodium-butyrate]", 102]
]}

Batch: cell viability for all items listed.
1. CC(=O)c1c(C)c2cnc(Nc3ccc(N4CCNCC4)cn3)nc2n(C2CCCC2)c1=O [palbociclib]
2. NCC1(CC(=O)O)CCCCC1 [gabapentin]
3. CC1=C(/C=C/C(C)=C/C=C/C(C)=C/C(=O)Nc2ccc(O)cc2)C(C)(C)CCC1 [fenretinide]
4. CC(=O)N(O)[C@@H]1c2cc(C#N)ccc2OC(C)(C)[C@H]1O
5. C[C@@H]1C[C@H]2[C@@H]3C[C@H](F)C4=CC(=O)C=C[C@]4(C)[C@@]3(F)[C@@H](O)C[C@]2(C)[C@@]1(O)C(=O)CO [flumethasone]

a:
92.8
94.4
84
95.2
101

Batch: cell viability for all items listed.
1. COCCCN1CCC(NC(=O)c2cc(Cl)c(N)c3c2OCC3)CC1 [prucalopride]
2. N[C@@H](C(=O)N[C@@H]1C(=O)N2C(C(=O)O)=C(Cl)CC[C@H]12)c1ccccc1 [loracarbef]
3. Clc1cccc(-n2nnnc2NCc2ccccc2Oc2ccccn2)c1Cl

a:
94.9
99
102

Batch: cell viability for all items listed.
1. CC(C)CCNC(=O)[C@H](CC(C)C)NC(=O)[C@H]1O[C@@H]1C(=O)O [loxistatin-acid]
2. C[C@H](Nc1ncnc2[nH]cnc12)c1nc2ccc(F)cc2c(=O)n1-c1ccccc1 [acalisib]
3. Cc1ccc(NC2=CC(=O)c3sc(C)nc3C2=O)cc1 [ryuvidine]
4. COc1ccc(S(=O)(=O)Nc2c(C)cc(C)cc2C)cc1
5. Sc1nc2ccccc2s1 [benzo[d]thiazole-2(3H)-thione]
6. O=c1c(O)c(-c2ccc(O)c(O)c2)oc2cc(O)ccc12 [fisetin]
7. CC(C)[C@@]1(NC(=O)[C@@H]2C[C@@H]3c4cccc5[nH]cc(c45)C[C@H]3N(C)C2)O[C@@]2(O)[C@@H]3CCCN3C(=O)[C@H](Cc3ccccc3)N2C1=O [dihydroergocristine]
8. CC(C)[C@@H](CN1CC[C@@](C)(c2cccc(O)c2)[C@@H](C)C1)NC(=O)[C@H]1Cc2ccc(O)cc2CN1 [JDTic]

a:
1: 105; 2: 65.1; 3: 2.7; 4: 102; 5: 93.1; 6: 83.2; 7: 94.9; 8: 83.2

Batch: cell viability for all items listed.
1. NC(=O)c1ncn([C@@H]2O[C@H](CO)[C@@H](O)[C@H]2O)n1 [ribavirin]
2. N[C@H]1CC[C@H](N[C@@H]2C[C@H]2c2ccccc2)CC1 [ORY-1001]
3. CCS(=O)(=O)CCn1c([N+](=O)[O-])cnc1C [tinidazole]
4. COc1ccc(NS(=O)(=O)c2ccc(N)cc2)nn1 [sulfamethoxypyridazine]
5. NC(N)=O [urea]
6. CC#CCn1c(N2CCC[C@@H](N)C2)nc2c1c(=O)n(Cc1nc(C)c3ccccc3n1)c(=O)n2C [linagliptin]

a:
1: 92.9; 2: 95.3; 3: 99.9; 4: 95.6; 5: 89.3; 6: 102

Batch: cell viability for all items listed.
1. CS(=O)(=O)Nc1ccc2oc3c(OC(F)F)ccc(C(=O)Nc4c(Cl)cncc4Cl)c3c2c1 [oglemilast]
2. O=C(/C=C/c1ccc(O)cc1)c1ccc(O)cc1O [isoliquiritigenin]

a:
81.1
112
